Entries and their IC50
assayed-target: Full-length human PRMT8 (Homo sapiens, UniProt Q9NR22)
Construct: Full-length human PRMT8 (NM_019854.4) isoform 1 transcript clone
Sequence (Q9NR22 whole entry, canonical isoform): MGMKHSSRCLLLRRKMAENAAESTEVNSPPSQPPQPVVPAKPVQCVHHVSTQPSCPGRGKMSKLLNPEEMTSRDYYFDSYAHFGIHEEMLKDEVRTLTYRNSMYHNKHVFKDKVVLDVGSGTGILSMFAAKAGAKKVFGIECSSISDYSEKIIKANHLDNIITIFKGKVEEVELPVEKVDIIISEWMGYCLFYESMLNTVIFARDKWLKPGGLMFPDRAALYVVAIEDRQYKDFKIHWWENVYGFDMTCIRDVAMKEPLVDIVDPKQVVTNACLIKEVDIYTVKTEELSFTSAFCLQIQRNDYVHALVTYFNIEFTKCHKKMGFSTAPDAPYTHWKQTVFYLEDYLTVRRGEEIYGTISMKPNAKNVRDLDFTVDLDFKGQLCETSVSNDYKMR
procedure-text: PRMT8 biochemical assay (3H-SAM Flashplate, peptide substrate)

Worked examples, 3 molecules total:
- molecular-string: "CC(C)Oc1ccc(-c2n[nH]cc2CN(C)CCN)cc1F"
  readout-kind: "IC50"
  val: "< 100 nM"
- molecular-string: "COc1ccc(-c2n[nH]cc2CN(C)CCN)c(F)c1"
  readout-kind: "IC50"
  val: "101 to 1000 nM"
- molecular-string: "CC(C)Oc1ccc(-c2c[nH]nc2CN(C)CCN)cc1Cl"
  readout-kind: "IC50"
  val: "101 to 1000 nM"

Now look at this entry.
For this molecule ( CNCCN(C)Cc1c[nH]nc1-c1ccc(C(=O)c2ccccc2)cc1 ), measured IC50 is 101 to 1000 nM
